- TARGET OR TEST SYSTEM: recombinant human PAI-1 (Homo sapiens, UniProt P05121)
- Sequence (P05121 24-402): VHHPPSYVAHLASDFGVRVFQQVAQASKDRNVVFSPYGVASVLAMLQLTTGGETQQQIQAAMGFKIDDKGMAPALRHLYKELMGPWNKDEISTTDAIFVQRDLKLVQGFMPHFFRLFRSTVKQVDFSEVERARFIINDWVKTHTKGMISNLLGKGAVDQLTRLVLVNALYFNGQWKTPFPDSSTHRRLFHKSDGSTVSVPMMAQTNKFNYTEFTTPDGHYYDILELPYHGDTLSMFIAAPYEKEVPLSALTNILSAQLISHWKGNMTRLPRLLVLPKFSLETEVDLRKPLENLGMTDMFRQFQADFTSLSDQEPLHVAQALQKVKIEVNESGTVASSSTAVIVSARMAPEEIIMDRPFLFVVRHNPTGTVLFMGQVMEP
- PROTOCOL DESCRIPTION: Test Example 2: Human PAI-1 Inhibitory Activity (pH 7.4 HEPES buffer, 10 minutes incubation with two-chain tPA)
- Type: biochemical
- Set-up: purchased Molecular Innovations, Inc
- CONDITION SUMMARY: read-out: Inhibition Rate of PAI-1 Activity (%)
Entries and their measured inhibition at 3 µM follow.
Report as a plain number; the unit % is understood.

Examples with their reported inhibition at 3 µM follow.
CC(C)(C)c1ccc(Oc2ccc(-c3ccc(OC(F)(F)F)cc3)cc2CCC(=O)O)cc1 :: 99
Cc1cc(C)cc(COc2ccc(-c3ccc(OC(F)(F)F)cc3)cc2N(CCCCc2ccccc2)C(=O)C(=O)O)c1 :: 95
CCCCC(Oc1cc(-c2ccc(OC(F)(F)F)cc2)ccc1Oc1ccc(C(C)(C)C)cc1)C(=O)O (stereo not drawn) :: 94
CCCCC(Oc1cc(-c2ccc(OC(F)(F)F)cc2)ccc1Oc1ccccc1)C(=O)O (stereo not drawn) :: 91
O=C(O)C(=O)N(CCCCc1ccccc1)c1ccc(-c2ccc3ccccc3c2)cc1 :: 92

Quick one: inhibition at 3 µM of O=C(O)/C=C/c1ccc(-c2ccc(OC(F)(F)F)cc2)cc1OCCCOCc1ccccc1 ?
98

What do you have for CCCCN(CC(=O)O)c1cc(-c2ccc(OC(F)(F)F)cc2)ccc1Oc1ccc(C(C)(C)C)cc1 ?
94

What do you have for CCCCOc1ccc(-c2ccc(OCC(=O)O)c(Oc3ccc(C(C)(C)C)cc3)c2)cc1 ?
97

What do you have for CCCCCOc1ccc(-c2ccc(Cl)cc2)cc1N(CCCCc1ccccc1)C(=O)C(=O)O ?
97

What do you have for CCN(CC)c1ccc(N(CCCc2ccccc2)C(=O)C(=O)O)c(-c2ccc(OC(F)(F)F)cc2)c1 ?
87

What do you have for CCCCCOc1ccc(-c2ccc(OC(F)(F)F)cc2)cc1N(CC(=O)O)C(=O)CCCc1ccccc1 ?
98
